Exercise: state measured PBM binding z-score for each of the sequences provided.
Tested on: LXRb homodimer (NR concentration 270 nM)
assay_name: PBM binding z-score (relative to random genomic background probes); higher = stronger binding; sequences stand for … in GC…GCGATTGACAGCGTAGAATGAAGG
Output: the number by itself.

Look up and state reported PBM binding z-score for TCTATTAGTTGAAGGGCAATCGACGAGTCCGTTT
0.176

Look up and state reported PBM binding z-score for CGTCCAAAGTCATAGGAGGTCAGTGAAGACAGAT
0.026

Look up and state reported PBM binding z-score for ATAACGAGGGCAATGAGTTGATAGCACGGGTGGC
0.11

Look up and state reported PBM binding z-score for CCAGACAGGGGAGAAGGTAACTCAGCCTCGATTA
-0.72

Look up and state reported PBM binding z-score for CCTACTGGGCCATCCGGTCATTGATATCAACGTT
0.244

Look up and state reported PBM binding z-score for GCTGCTAGGTCAAGTTGGTCAGCTAACGGGTACG
0.442

----------
Tested on: PXR homodimer (NR concentration 270 nM)
assay_name: PBM binding z-score (relative to random genomic background probes); higher = stronger binding; sequences stand for … in GC…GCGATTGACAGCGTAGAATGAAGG
Rule: PBM binding z-score of 0.5 or more gives Yes; anything lower gives No.

Could you tell me if the measured PBM binding z-score of CCTCTTAGTTGACCATAAGGGCAACCGAAGCTCG reaches 0.5 or more?
No

Could you tell me if the measured PBM binding z-score of ATACCAATGTGATCGTGAGGTCGTTGATACTAAC reaches 0.5 or more?
Yes

Could you tell me if the measured PBM binding z-score of AGAATGAGGTTACCAAAGATCCGGGAAACGCTTG reaches 0.5 or more?
No

Could you tell me if the measured PBM binding z-score of ATATGTATGTTAGCTGGGGTCATTCAGACTAGGC reaches 0.5 or more?
Yes

Could you tell me if the measured PBM binding z-score of CGAACTAGGTCAAGAGGTCAAAGTCCGCTTCCCG reaches 0.5 or more?
Yes

Could you tell me if the measured PBM binding z-score of GATACAGGGCCAGCTAGAGGCCAGAGTATGGAAA reaches 0.5 or more?
No

----------
System: RARg:RXRa (NR concentration 270 nM, RXRa partner concentration 90 nM)
assay_name: PBM binding z-score (relative to random genomic background probes); higher = stronger binding; sequences stand for … in GC…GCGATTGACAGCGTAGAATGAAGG
Exercise: state measured PBM binding z-score for each of the sequences provided.
Output: the number by itself.

Look up and state reported PBM binding z-score for TCAATGAGGTTATAAGATCAGGGAACGTTGCAAA
1.52

Look up and state reported PBM binding z-score for ACTTACGGGTCAACGAGGTTATCGCACGCGTATA
5.86

Look up and state reported PBM binding z-score for TTGAGTAGGTTAGGGGCATTCAGAATGGCGTCGA
0.491

Look up and state reported PBM binding z-score for ATCTCTAGGTCAAGTTCAGTGAAAGATCGATAGA
4.93

Look up and state reported PBM binding z-score for ACTAGTTGGTCAGCAGAGGTCACACACAATTCGG
5.03

Look up and state reported PBM binding z-score for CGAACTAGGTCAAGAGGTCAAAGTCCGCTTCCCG
8.2

----------
Test system: RARa homodimer (NR concentration 270 nM)
assay_name: PBM binding z-score (relative to random genomic background probes); higher = stronger binding; sequences stand for … in GC…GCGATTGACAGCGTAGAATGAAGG
measurement_kind: PBM binding z-score
Output: the number by itself.

Look up and state reported PBM binding z-score for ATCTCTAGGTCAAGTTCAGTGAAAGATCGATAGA
1.74

Look up and state reported PBM binding z-score for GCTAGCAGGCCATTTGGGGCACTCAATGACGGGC
-1.06

Look up and state reported PBM binding z-score for ATCTCTAGGTAACGTTCAGTGAAAGATCGATAGA
0.865

Look up and state reported PBM binding z-score for ATATGTAGGTTAACGGTCATTCAGGTTGGTTCGC
0.573

Look up and state reported PBM binding z-score for CCTCGGAGGACAGAAGGACAGAGCTGTCCGCTTT
-0.614

Look up and state reported PBM binding z-score for TCTTGTAGATCAACACGAGGTTAAGAAAGATCGA
0.374

Look up and state reported PBM binding z-score for ATCGAAAGGTCGACGAGGTGAATATACACCGTTT
1.02

Look up and state reported PBM binding z-score for TTAATGAGGTTAAAGATCAGGGAACGTGGCGTCG
1.1

Look up and state reported PBM binding z-score for CCTAGCAGGCCAATCTGGGCCACTCAAGGCTTGA
-0.723

Look up and state reported PBM binding z-score for CGTCCAAGGTCAAAGCTCAGTGAAGAGATGACGG
1.16

Look up and state reported PBM binding z-score for ATCTCTAGGTAACCAAATTCAGTGAATGCCGAAC
0.995

Look up and state reported PBM binding z-score for CCTGCTAGGTCATGCTCAGCTAATCTACAGTATG
-0.229

Look up and state reported PBM binding z-score for TCTCGGAGGACACGATAGGTCAGAGCTCGACATC
-0.7

Look up and state reported PBM binding z-score for TAGCCTAGGTCATTCAGCGGCCAGTATAGAAAGC
-0.474

Look up and state reported PBM binding z-score for ACAGACAGGTGATGAAGGTAACACAGGCTATCAT
0.746

Look up and state reported PBM binding z-score for ACTTACGGGTCAACGAGGTTATATCACGCGTATA
0.919

Look up and state reported PBM binding z-score for ACCGAAAGGTCGACGAGGTGAGTATACACCGTTT
0.4

Look up and state reported PBM binding z-score for ATACCAAGATGATCGTGAGGTCGTTGATACTAAC
0.361

Look up and state reported PBM binding z-score for TGTCAAAGTGCAAAGGTAACGTAAGTATCCACAC
0.0756

Look up and state reported PBM binding z-score for CCTACTGGGCCATCAGGTCATTCATATCAACGTT
0.469

Look up and state reported PBM binding z-score for TTATATAGGTAATACAGGTGAAAGTCGGCATCTA
1.4

Look up and state reported PBM binding z-score for GCTAGCAGGCCATTTGCGTCACTCAATGACGGGC
-1.25

Look up and state reported PBM binding z-score for AGAATGAGGTTATTCAGATCAGGGAATTGCGGTC
0.495

Look up and state reported PBM binding z-score for TCTTATAGGTAAATGCTAGGTGAAAGTCCGATCT
1.65

Look up and state reported PBM binding z-score for TCTCGGACGACACGAAAGGTCAGAGCTCGACATC
2.43

Look up and state reported PBM binding z-score for TAGCCTAGGTCACTCAGGGGCCAGTATAGAAAGC
-0.348

----------
Tested on: PXR:RXRa (NR concentration 270 nM, RXRa partner concentration 90 nM)
assay_name: PBM binding z-score (relative to random genomic background probes); higher = stronger binding; sequences stand for … in GC…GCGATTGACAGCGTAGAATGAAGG
Rule: PBM binding z-score of 2 or more gives Yes; anything lower gives No.

Could you tell me if the measured PBM binding z-score of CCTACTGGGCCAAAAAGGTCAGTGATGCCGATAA reaches 2 or more?
Yes

Could you tell me if the measured PBM binding z-score of CCTACTGGGCAATCAGGTCATTGATATCAACGTT reaches 2 or more?
No

Could you tell me if the measured PBM binding z-score of ATCGAAAGTTCGAGGTGAGTATAGAGAAAGGGAA reaches 2 or more?
No

Could you tell me if the measured PBM binding z-score of TCTGCTAGGTCAACGATGGTCAGCTCATCTGCTA reaches 2 or more?
No

Could you tell me if the measured PBM binding z-score of TCATATAGGTAAATGCTGGGTGAAAGTCCGATCT reaches 2 or more?
No

Could you tell me if the measured PBM binding z-score of AGTCAAAGTTCACTAGGTAACTTAAGATTCAGCT reaches 2 or more?
Yes

Could you tell me if the measured PBM binding z-score of ATATGTAGGTTAAGGGTCATTCACGTTGGTTCGC reaches 2 or more?
Yes

Could you tell me if the measured PBM binding z-score of TCAGACAGGCGAAGGTAACTCAGGTACGCAGTCG reaches 2 or more?
No

Could you tell me if the measured PBM binding z-score of ACTAGTTGGTCAGGTGAGGTCACACACAATTCGG reaches 2 or more?
Yes

Could you tell me if the measured PBM binding z-score of ATATGTAGGTTAGCTGGGGACATTCAGACTAGGC reaches 2 or more?
Yes

Could you tell me if the measured PBM binding z-score of TATACAGGGTCAAAGGCCAGACTACGAATGTCGA reaches 2 or more?
Yes

Could you tell me if the measured PBM binding z-score of CCGAGTAGGTTATGGGGCATTCAGGCAACGGTGA reaches 2 or more?
No

Could you tell me if the measured PBM binding z-score of TAGCCTAGGTCATGGGCCATTATACCACGCGAAC reaches 2 or more?
No

Could you tell me if the measured PBM binding z-score of AGTCAAAGTTCACTACGTAACGTAAGATTCAGCT reaches 2 or more?
Yes

Could you tell me if the measured PBM binding z-score of ATCTCTAGGTAAAGATTGTTCAGTGAATGCAAAT reaches 2 or more?
No

Could you tell me if the measured PBM binding z-score of TCTAGTTGTTCAAAGGTCACACACTCGAAATGCG reaches 2 or more?
Yes

Could you tell me if the measured PBM binding z-score of CCAGACAGGTGAAAGGTAACTCAGTCTGGTACGC reaches 2 or more?
No

Could you tell me if the measured PBM binding z-score of ATAGAAAGGTCGACGAGGTGAGTATACACCGTTT reaches 2 or more?
Yes

Could you tell me if the measured PBM binding z-score of CGTCCAAGGTCATAGGAGGTGAGTGAAGACAGAT reaches 2 or more?
Yes

Could you tell me if the measured PBM binding z-score of CCTCGGAGGACAACAGGAGGTCAGAGCGGCCAGA reaches 2 or more?
Yes

Could you tell me if the measured PBM binding z-score of ATACCAAGGTGATCGTGAGGTAGTTGATACTAAC reaches 2 or more?
No

Could you tell me if the measured PBM binding z-score of CAAACTAGGTCAAGAGGTCCAAGTCCGCTTCCCG reaches 2 or more?
No

Could you tell me if the measured PBM binding z-score of TCATATAGGTAAATGCTAGGTGCAAGTCCGATCT reaches 2 or more?
No

Could you tell me if the measured PBM binding z-score of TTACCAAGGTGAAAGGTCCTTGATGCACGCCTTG reaches 2 or more?
No

Could you tell me if the measured PBM binding z-score of GATACAGGGACAAGGCCAGAGTACGCGTATTGAT reaches 2 or more?
No

Could you tell me if the measured PBM binding z-score of CCGAGTAGGTTATCGGGCATTCAGGCAACGGTGA reaches 2 or more?
No
